Recorded values, source the DeepSol protein solubility set.

Experiment: soluble on expression in E. coli; label from the status in PepcDB or PDB records
Measured Quantity: soluble on expression in E. coli

Take a look at these entries with their results.
INSERT INTO measurements (input_sequence, measured_quantity, measurement) VALUES
  ('MKEIKVNELTDNLFETISKEWMLVTAGTKDKFNTMTANWGGAGFLWNRPVAFIFIRPERYTFDFIEQNDYLTLSFLGEEHKEIHKICGSKSGRDMDKVKATGLSPLFTENGSITFEQARLTFECKKLYADLIKPGNFIDKSITDRWYGESHGGFHKMYVVEIVNVLSR', 'soluble on expression in E. coli', 'soluble'),
  ('MGSDKIHHHHHHMSNVKTAEFKRPQLSLPHSADKLLLHSCCAPCSGEVMEAITASGIDYTIFFYNPNIHPQREYLIRKEENIRFAEQHNVPFIDADYDSDNWFERAKGMEWEPERGIRCTMCFDMRFERTALYAAENGFSVISSSLGISRWKNMQQINECGQNAAQKYPGVTYWDYNWRKGGGSARMIEISKREHFYQQEYCGCIYSLRDSNKHRKSQGRDIIRIGKLYYGDEAE', 'soluble on expression in E. coli', 'not soluble'),
  ('MGSDKIHHHHHHMKISERQKDLLKEIGNIGAGNAATAISYMINKKVEISVPNVEIVPISKVIFIAKDPEEIVVGVKMPVTGDIEGSVLLIMGTTVVKKILEILTGRAPDNLLNLDEFSASALREIGNIMCGTYVSALADFLGFKIDTLPPQLVIDMISAIFAEASIEELEDNSEDQIVFVETLLKVEEEEEPLTSYMMMIPKPGYLVKIFERMGIQE', 'soluble on expression in E. coli', 'not soluble'),
  ('MSLKPAPRWPLHPAPREGEALSSWLNRVALCYHMEVSELLEHDLGHAQVDDLDTAPPLALLAMLSQRSGIEPDRLRCMSFAGWVPWLLDSLDDQIPDALETYAFQLSVLLPKLRRRTRSITSWRAWLPSQPIHRACPLCLNDPANQAVLLAWKLPLMLSCPLHGCWLESYWGVPGCQRRSNTDPWRRGEGHHHHHH', 'soluble on expression in E. coli', 'not soluble');

Consider the sequence shown here: MNWHPAACKISAKGGYLRVIIDASNVAHSRKNDEEKPCIENILSAAEELEKLGYEPVIIADASLRHEIDDKEQFRKLLEEGKFQQVPSGTSADHFILKMAEEEDAKILSNDVFRDYKDEFQDINSRRIPYTFREDKILIGTSGKPKKVKNILQKICNEALREFERKRIDAYKVKRGKKLSGIAIAKEAIDRISRSQEEGLEPRLEGIFMKLPLFERFMSMVEEVERTSNYIIFVLVHPKDYRDAVKYAGNIAVTVGDRLKLEHAPLVAVRNDLFLKPGTFELNIMYSEDVMEEAPYNVNITINDHDYSFVKKNSRNIASTLAARIGSWRFPIVSVKPSMLLEKPGEFEVVLEKGGNDLEHHHHHH What is its recorded soluble on expression in E. coli? soluble

Consider the sequence shown here: MGSDKIHHHHHHMMDRQFQHAMLPQPTHDELARQNFVQSLKTHIFRNISPGNKVVYEKLAKPKFEQEHQRPPQNRHEIREVMQHESYYRWTSALKRIHQEILWDAVNTSVGRQLPELIERAKDRGGELGTLTLDPNFQIPNYQKAVDIHCMPGGYHSEFTGGDVAAGATYDRGAYLYGLGWLGPLNNDMGLSIVQNYLLPEYPDFRPRKILDMGCSVGNSTLPYVDAYPDAEVHAIDVGAPMLRYGHARAEALGKRVHFWQQNAEHTNFPDESFDLVVSHILLHEIPPSAVRKVMQESYRLLAPGGIMLHLEAPLYRHLDVYTQFIFDWETANNNEPFWSAVRDLDLVTLATEAGFAPDKTFEKFVPNGAWKAKVTNGLFQNGNSGSLNTWFVVAATK What is its recorded soluble on expression in E. coli? not soluble

Consider the sequence shown here: MSEQLNADRPKTRRKEPAGRGSASEQKILAAAKELFLADRYDGVNLERIAARAGVSRQTVYNRFGSKETVFREMVRHHWSAFAGPGRDIAECGPDASAEEVLRGFAQSLQRFATETDQIRFAQLVVTESARLPWIADEFYRLGKGPVVVTFADCLDSLVRRGLLRCPDTHLAARQFTGLVQEFLVWPRVMAFEEEVAGQAPPEVVIEEAVLTFLARYAPAADGPGQSV What is its recorded soluble on expression in E. coli? not soluble

Consider the sequence shown here: MAASIELFEQNGFSETSIQDIVDALGVTKGTFYYYFTSKEELLMDIHLRYIERLLDEEERIISDKRRSVQEKLYDIIFMLIHNVERQGREARIFFREMKHLNEEHLQKVKEKRDLFRYRLQSLIEEGMKSGELRCDLSPSIATLTVLGAANWSYQWFRPDGELTDAEVAKQMVEILLDGMSAPSVSKAE What is its recorded soluble on expression in E. coli? not soluble

Consider the sequence shown here: MSLNAQNAGINFLHGTTWAEAVAKAKAENKLIFIDFYTQWCGPCMNMAQTVFSLPTVGYYYNQTFINLKIDAEEGEGITLAKKYGVRSYPTYAFVDPATEEIVHRSSSRQTPEQFIQTGKDANIPTKRSFYLQEQYTKGNRERAFLIDYINYHYSVYARNNVQAAFDELIKGGAKLTDPDVWEVYVNTINGMNPYLKQVSDNYADFCQRFGKKAVDAKLAKETSYGELAEIEALCNYEGKDFNLKMIRINNDIREQKYEAAATQIDAMIADTTVNQQELISRLKFIARLGYKAEELPEFWFNKCVGYLQYIAYNQTDRDDAFIHQEYAAALEMVLRKLNGKAPIPACLSTEPAYGKKVYNMRPDALKMKPKREGHHHHHH What is its recorded soluble on expression in E. coli? soluble

Consider the sequence shown here: MAHHHHHHMLQSPKGINILITGTPGTGKTSLAELLAQELGDFKHVEVGKIVKENHFYSEYDNALDTHIVEEDDEDRLLDFMEPMMVNEGNHVVDYHSSELFPRRWFHLVIVLRASTEVLFERLTARRYSEQKRDENMEAEIQGLCEEEARGAYDDSIVIVRENNTLEEMAATVDLIRLRVESLRGNAA What is its recorded soluble on expression in E. coli? not soluble

Consider the sequence shown here: MGSDKIHHHHHHMFAITGITGQVGGVVARALLAAGKDVRAVVRSAAKGAQWKEQGCEIAVAEMSDTQALSGAFSGVDGVFILLPPNFDPSPDFAESRHLVGTLRDALKQANPPKVVCLSTIGAQAAQPNLLQQLGYMEQQLGSLPMPIAFLRAGWFIENAAWDVEPARTAGVIPSFLQPLDKPVPMVATADVGRVAASMLQQAWTGKRIVELEGPRRITPNDLANTFARLLGKDVRMETVPRDTWEALFKSQGMKNPVPRMQMLDGFNEGWIEFETPDQTIKGNVTLETVLQSLIERVG What is its recorded soluble on expression in E. coli? not soluble

Consider the sequence shown here: MGNSHSVTTALHSVLKQREIKVSTRTLETFIKEIERISPWYACSGSLTLSSWEKLREDLAKEQQNGKLKAGTMPLWKLVRSCLEDERCRPAIITGQAILEEAQDSMAETEWCERLGAPKKGKCAQSKKPFQRP What is its recorded soluble on expression in E. coli? soluble
